// provenance: patent US20220033483A1

Molecular target: T1, cTnI quality control product recombinant protein (human, UniProt P19429 1-210, limits assumed)
T1 construct: the assay paragraphs only say cTnI; also called cardiac troponin I; cTnI antigen
T1 sequence (P19429 whole entry): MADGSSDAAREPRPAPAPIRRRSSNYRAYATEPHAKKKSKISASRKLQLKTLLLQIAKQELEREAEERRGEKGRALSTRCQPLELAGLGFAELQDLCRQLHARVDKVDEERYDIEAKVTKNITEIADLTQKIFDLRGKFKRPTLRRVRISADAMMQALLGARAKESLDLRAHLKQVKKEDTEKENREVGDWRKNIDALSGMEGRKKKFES
Experiment: AMC biosensor, antibody on sensor
pKd: −log10 of the molar value.
Reported property: pKd

>>> number("Mutation 3 (antibody, V domains shown, other CDR sites as WT) VH: QVQLQQSGTELAKPGASVKFSCKASIYTFSTYWMYWIKQRPGQGLEWIGYLNPSSGHTGYNQRFKDKATLTADKSSSTAYMQLNSLTSEDSAVYYCARKYFGPFVMDYWGQGTSVTVSS VL: EIFLTQSPAIMSASPGEKVTMTCSASTTVSYIHWYQQKSGTSPKRWLYDTSKIASGIPVRFSGSGSGTSYSLTISSMEAEDAATYYCQRWSTQPYTFGGGTKLEIKR")
7.75
>>> number("Mutation 4 (antibody, V domains shown, other CDR sites as WT) VH: QVQLQQSGTELAKPGASVKFSCKASNYTFSTYWMYWIKQRPGQGLEWIGYLNPSSGHTKYNQRFKDKATLTADKSSSTAYMQLNSLTSEDSAVYYCARKYFGPFNMDYWGQGTSVTVSS VL: EIFLTQSPAIMSASPGEKVTMTCSASTTVSYEHWYQQKSGTSPKRWLYDQSKIASGIPVRFSGSGSGTSYSLTISSMEAEDAATYYCQVWSTQPYTFGGGTKLEIKR")
4.25
>>> number("Anti-cTnI 7B9 monoclonal antibody (recombinant, Sample 1) (antibody, mouse IgG1, kappa, V domains shown, Recombinant mouse antibody expressed in CHO cells; also called WT; Anti-cTnI 7B9 antibody) VH: QVQLQQSGTELAKPGASVKFSCKASDYTFSTYWMYWIKQRPGQGLEWIGYLNPSSGHTEYNQRFKDKATLTADKSSSTAYMQLNSLTSEDSAVYYCARKYFGPFAMDYWGQGTSVTVSS VL: EIFLTQSPAIMSASPGEKVTMTCSASTTVSYAHWYQQKSGTSPKRWLYDSSKIASGIPVRFSGSGSGTSYSLTISSMEAEDAATYYCQNWSTQPYTFGGGTKLEIKR")
7.89
